Tested on: ESR1 transcription in MVLN cells
TEST_DESCRIPTION: MVLN reporter assay: repression of ESR1 transcription (luciferase signal)
Format: cell-based
RUN_CONDITIONS: Homo sapiens, MVLN, 24 h, luciferase signal after 24 h, read-out: MVLN reporter assay, IC50 [M] (arithmetic mean)
MEASURED_QUANTITY: IC50 (M)
Your answer should be a plain number; it is taken to be in M.

Use the examples below as a reference point.
1) COc1ccc(Br)cc1S(=O)(=O)NC(=O)c1cc2c(F)cc(N3CCC3)cc2o1    2.36e-07
2) CC1(C)COc2ccc(S(=O)(=O)NC(=O)c3cc4c(F)cc(N5CCC5)cc4o3)cc21    1.93e-07
3) CC(C)c1ccc(OC2CCC2)c(S(=O)(=O)NC(=O)c2cc3c(F)cc(N4CCC4)cc3o2)c1    8.72e-08
4) CC(C)Nc1cccc(F)c1S(=O)(=O)NC(=O)c1cc2c(F)cc(N3CCC3)cc2o1    8.64e-07
5) O=C(NS(=O)(=O)c1c(OCc2ccccc2)cccc1OC1CCC1)c1cc2c(F)cc(N3CCC3)cc2o1    6.43e-08
6) Cc1ccc2cccc(S(=O)(=O)NC(=O)c3cc4c(F)cc(N5CCC5C)cc4o3)c2n1 (racemic)    3.82e-07
7) CCOc1ccc(Oc2ccccc2)cc1S(=O)(=O)NC(=O)c1cc2c(F)cc(N3CCC3)cc2o1    2.44e-07
8) CCOc1ccccc1S(=O)(=O)NC(=O)c1cc2ccc(N3CC(F)(F)C3)cc2o1    1.2e-06

Name the reported IC50 value associated with the compound `CCOc1ccccc1S(=O)(=O)NC(=O)c1cc2c(F)cc(N3CCC3)cc2o1`
5.54e-08

Name the reported IC50 value associated with the compound `CCN(C)C(=O)c1ccccc1S(=O)(=O)NC(=O)c1cc2c(F)cc(N3CCC3)cc2o1`
1.3e-06

Name the reported IC50 value associated with the compound `COc1ccc(C2=CCN(C(=O)OC(C)(C)C)CC2)cc1S(=O)(=O)NC(=O)c1cc2c(F)cc(N3CCC3)cc2o1`
1.62e-07

Name the reported IC50 value associated with the compound `COc1ccc(-c2cn(C)nc2C)cc1S(=O)(=O)NC(=O)c1cc2c(F)cc(N3CCC3)cc2o1`
1.11e-07

Name the reported IC50 value associated with the compound `O=C(NS(=O)(=O)c1ccccc1/C=C/C(F)(F)F)c1cc2c(F)cc(N3CCC3)cc2o1`
1.69e-06

Name the reported IC50 value associated with the compound `Cc1nc(N)c(S(=O)(=O)NC(=O)c2cc3c(F)cc(N4CCC4)cc3o2)c(C)c1Cl`
1.05e-05

Name the reported IC50 value associated with the compound `O=C(NS(=O)(=O)c1cc(O)cc2ccccc12)c1cc2c(F)cc(N3CCC3)cc2o1`
1.72e-05

Name the reported IC50 value associated with the compound `Cc1cc(S(=O)(=O)NC(=O)c2cc3c(F)cc(N4CCC4)cc3o2)c2ncccc2c1`
1.65e-07

---

Test system: ESR1 transcription in MVLN cells
TEST_DESCRIPTION: MVLN reporter assay: repression of ESR1 transcription (luciferase signal)
Format: cell-based
RUN_CONDITIONS: Homo sapiens, MVLN, 24 h, luciferase signal after 24 h, read-out: MVLN reporter assay, IC50 [M] (arithmetic mean)
Each record here notes measured IC50.
Your answer should be a plain number; it is taken to be in M.

Use the examples below as a reference point.
1. CCSc1nc2ccccn2c1S(=O)(=O)NC(=O)c1cc2c(F)cc(N3CCC3)cc2o1    3.14e-06
2. CCCc1cccc(S(=O)(=O)NC(=O)c2cc3c(F)cc(N4CCC4)cc3o2)c1    7.89e-07
3. Cc1ccc(S(=O)(=O)NC(=O)c2cc3c(F)cc(N4CCC4)cc3o2)c2ccncc12    4.99e-06

Value wanted: IC50 (ESR1 transcription in MVLN cells) of entry `CCOc1ccc(C(C)(C)C)cc1S(=O)(=O)NC(=O)c1cc2c(F)cc(N3CCC3)cc2o1`
4.95e-09

Value wanted: IC50 (ESR1 transcription in MVLN cells) of entry `CCOc1cccc(OCc2ccccc2)c1S(=O)(=O)NC(=O)c1cc2c(F)cc(N3CCC3)cc2o1`
1.23e-07

Value wanted: IC50 (ESR1 transcription in MVLN cells) of entry `CCOc1ccc(C(C)C)cc1S(=O)(=O)NC(=O)c1cc2c(F)cc(N3CC(F)C3)cc2o1`
1.55e-08

Value wanted: IC50 (ESR1 transcription in MVLN cells) of entry `O=C(NS(=O)(=O)c1cccc2c1OCCC2)c1cc2c(F)cc(N3CCC3)cc2o1`
1.63e-07

Value wanted: IC50 (ESR1 transcription in MVLN cells) of entry CCOc1ccccc1S(=O)(=O)NC(=O)c1cc2c(F)cc(N3CCC3C(C)(C)O)cc2o1 (racemic)
1.95e-05

Value wanted: IC50 (ESR1 transcription in MVLN cells) of entry `Cc1ccc2cccc(S(=O)(=O)NC(=O)c3cc4c(F)cc(N5CC(F)C5)cc4o3)c2n1`
3.69e-08

Value wanted: IC50 (ESR1 transcription in MVLN cells) of entry `O=C(NS(=O)(=O)c1cccc2nccnc12)c1cc2c(F)cc(N3CCC3)cc2o1`
2.11e-06
